- target_or_system: SARS-CoV-2 full length spike protein (wild-type), conjugated to optically encoded beads (SARS-CoV-2, UniProt P0DTC2 14-1208)
Assign median fluorescence fold over isotype to each entry below.
One number for each entry, in fold over isotype.

Recorded median fluorescence fold over isotype, per entry:
antibody 527 (antibody, V domains shown) VH: QLQLQESGPGLVKPSETLSLTCTVSGGSISSSSYYWGWIRQPPGKGLEWIGSIYYSGSTYYNPSLKSRVTISVDTSKNQFSLKLSSVTAADTAMYYCASHVVVIASSYWCFDLWGRGTLVTVSS VL: QSALTQPASVSGSPGQSITISCTGTSSDVGGYNYVSWYQQHPGKAPKLMIYDVSNRPSGVSNRFSGSKSGNTASLTISGLQAEDEADYYCSSYTSISTWVFGGGTKLTVL : 148
antibody 546 (antibody, V domains shown) VH: QVQLVESGGGVVQPGRSLRLSCAASGFTFSSYGMHWVRQAPGKGLEWVAVIWYDGSNKYYADSVKGRFTISRDNSKNTLYLQMNSLRAEDTAVYYCARNCGGDCVAGDGFDYWGQGTLVTVSS VL: DIQMTQSPSSLSASVGDRVTITCRASQSISSYLNWYQQKPGKAPNLLIYAASSLQSGVPSRFSGSGSGTDFTLTISSLQPEDFATYYCQQSYSALTWTFGQGTKVEIK : 1160
antibody 533 (antibody, V domains shown) VH: GVQLVESGGVVVQPGGSLRLSCAASGFSFDDYTMHWVRQAPGKGLEWVSLVSWDGGTTYYTDSVKGRFTISRDNSKNSLYLQMNSLRTEDTALYFCAKDSGRIVPAATFDYWGQGTLVTVSS VL: DIQMTQSSSSLSASVGDRVTITCRASQDISNYLAWFQQKPGKAPKSLIYAASSLQSGVPSKFSGSGSGTDFTLTISSLQPEDFATYYCQQYYTYPLTFGGGTKVEIK : 23.4
antibody 545 (antibody, V domains shown) VH: QVQLVQSGSELKKPGASVKVSCKASGYTFTSYAMNWVRQAPGQGLEWMGWINTNTGNPTYAQGFTGRFVFSLDTSVSTAYLQISVLKAEDTGVYYCARDHELPNSSSWFGHFEYWGQGTLVTVSS VL: SYELTQPPSVSVSPGQTARITCSGDALPKQYAYWYQQKAGQAPVLVIYKDSERRSGIPERFSGSSSGTTVTLTISGVQAEDEADYYCQSADSSGTSVVFGGGTKLTVL : 939

Please turn your attention to the following entry.
Problem: Entry antibody 523 (antibody, V domains shown) VH: EVQLVESGGVSVQPGGSLRLSCAASGFSFNTYDMHWVRQGTGKGLEWVSGIGTAGDTYYSDSVKGRCTISRDNAKNSLHLLVKSVRAADTAVYYCARGVGGIIDYWGQGTLVTVSS VL: NFVLSQPHSVSESPGKTVTISCTGNSGSIATKYVQWFQQRPGSAPTTVIYEDNQRPSGVPDRFSGSSDSSSNSASLTISGLKTEDEAHYYCQSYHNRRWVFGGGTKLTVL has what median fluorescence fold over isotype?
Result: 30.8
